Biological target: Toll-like receptor 9 (Homo sapiens)
Sequence (Q9NR96 whole entry): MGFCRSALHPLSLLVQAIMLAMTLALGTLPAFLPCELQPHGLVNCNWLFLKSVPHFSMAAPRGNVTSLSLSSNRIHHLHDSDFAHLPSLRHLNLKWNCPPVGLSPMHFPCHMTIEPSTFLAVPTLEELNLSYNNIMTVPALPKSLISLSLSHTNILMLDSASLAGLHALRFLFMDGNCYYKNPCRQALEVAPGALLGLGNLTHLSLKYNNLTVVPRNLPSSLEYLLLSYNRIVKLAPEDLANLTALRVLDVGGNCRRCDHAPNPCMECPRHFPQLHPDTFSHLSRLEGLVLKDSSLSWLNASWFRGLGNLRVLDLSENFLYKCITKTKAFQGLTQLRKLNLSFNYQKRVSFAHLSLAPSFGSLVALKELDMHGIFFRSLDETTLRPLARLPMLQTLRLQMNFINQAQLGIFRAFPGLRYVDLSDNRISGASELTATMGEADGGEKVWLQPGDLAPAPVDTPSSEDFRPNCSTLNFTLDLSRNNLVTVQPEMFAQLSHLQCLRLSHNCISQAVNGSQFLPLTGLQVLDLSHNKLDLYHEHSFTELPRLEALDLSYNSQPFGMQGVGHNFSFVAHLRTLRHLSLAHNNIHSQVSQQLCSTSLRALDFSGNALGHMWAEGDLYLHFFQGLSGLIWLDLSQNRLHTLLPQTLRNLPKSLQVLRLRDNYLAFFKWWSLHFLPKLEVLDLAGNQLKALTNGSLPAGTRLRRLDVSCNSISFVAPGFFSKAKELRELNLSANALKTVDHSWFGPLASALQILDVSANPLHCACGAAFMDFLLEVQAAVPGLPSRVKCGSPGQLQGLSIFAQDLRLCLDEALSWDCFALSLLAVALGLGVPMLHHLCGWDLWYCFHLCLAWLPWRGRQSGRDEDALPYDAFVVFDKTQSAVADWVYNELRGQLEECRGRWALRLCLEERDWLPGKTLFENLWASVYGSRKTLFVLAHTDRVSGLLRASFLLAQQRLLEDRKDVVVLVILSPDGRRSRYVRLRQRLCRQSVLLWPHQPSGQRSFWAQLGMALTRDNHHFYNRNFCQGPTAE
Test: Antagonist activity at TLR9 in human PBMC assessed as inhibition of ODN2216-induced IFNalpha production
ASSAY METRIC: IC50 (µM)
// return numeric value only (unit: µM, not printed)

Field: example entries. Status: answers known.
Which IC50 value belongs to Cc1cc(-c2ccc(OCC34CCC(N)(CC3)CC4)c(F)c2)c2cnc(N)nn12 ?
3.4

Next compound up: Cn1nc(-c2ccc(OCC3CC4(CNC4)C3)c(F)c2)c2cnc(N)nc21
6.5

Others:
# get_value(readout='IC50', item= Cn1nc(-c2ccc(OCCCC3CCNCC3)c(F)c2)c2cnc(N)nc21 )
2.3

----------
Assay: Clearance in BALB/c mouse at 5 mg/kg, iv
Format: ADME, organism-based
Settings: in vivo
ASSAY METRIC: log10 clearance (log10 of the value in mL/min/kg)
Values reflect log10 of reported clearance (mL/min/kg).

A selection of reference data follows.
// query log10 clearance value for entry Cn1nc(-c2ccc(OCC34CCC(N)(CC3)CC4)c(F)c2)c2cnc(N)nc21
1.99

Now try Cc1cc(-c2cnc(OCC34CCC(N)(CC3)CC4)c(C)c2)c2cnn(C)c2n1 .
1.64

Also check Cn1nc(-c2ccc(OCCCC3CCNCC3)c(F)c2)c2cnc(N)nc21
2.22

Thanks! And Cc1cc(-c2ccnc3[nH]ncc23)cnc1OCC12CCC(N)(CC1)CC2 ?
1.36

Do the same for Cc1cc(-c2nn(C)c3nc(N)ncc23)cnc1OCC12CCC(N)(CC1)CC2 please
1.98

Now let's try a different one.
Returns the measured log10 clearance for the input compound. Input: Cc1cc(-c2ccnc3[nH]ncc23)cnc1OCC12CCC(O)(CC1)CC2
1.04

----------
AUC overview
Test: AUC in BALB/c mouse at 20 mg/kg, po
Format: ADME, organism-based
Set-up: dose 20 mg/kg
Details: in vivo
Record the value in µM·h, omitting the unit from your answer.

Examples from the recorded data:
Look at this compound and give its reported AUC. Cc1cc(-c2nn(C)c3nc(N)ncc23)cnc1OCC12CCC(N)(CC1)CC2
2.98

And the next one, Cc1cc(-c2ccnc3[nH]ncc23)cnc1OCC12CCC(N)(CC1)CC2 ?
29.6

And for Cn1nc(-c2ccc(OCC34CCC(N)(CC3)CC4)c(F)c2)c2cnc(N)nc21 ?
3.05

Field entry: Cc1cc(-c2ccnc3[nH]ncc23)cnc1OCC12CCC(O)(CC1)CC2
36.3

Continuing:
Give its AUC value. Item: Cc1cc(-c2cnc(OCC34CCC(N)(CC3)CC4)c(C)c2)c2cnn(C)c2n1
28.9

----------
In this section, each of the molecules is paired with its reported bioavailability.
Assay: Oral bioavailability in BALB/c mouse at 20 mg/kg
Format: ADME, organism-based
Conditions: in vivo
State just the number; it will be interpreted in %.

Recorded bioavailability, per entry:
Using the record for Cc1cc(-c2cnc(OCC34CCC(N)(CC3)CC4)c(C)c2)c2cnn(C)c2n1 , report its bioavailability.
150

// next record Cn1nc(-c2ccc(OCCCC3CCNCC3)c(F)c2)c2cnc(N)nc21
0

And then Cn1nc(-c2ccc(OCC34CCC(N)(CC3)CC4)c(F)c2)c2cnc(N)nc21 , what is it?
36

Record: Cc1cc(-c2ccnc3[nH]ncc23)cnc1OCC12CCC(N)(CC1)CC2
75

Next:
What value of measured bioavailability is listed for Cc1cc(-c2ccnc3[nH]ncc23)cnc1OCC12CCC(O)(CC1)CC2 ?
43

Try the molecule Cc1cc(-c2nn(C)c3nc(N)ncc23)cnc1OCC12CCC(N)(CC1)CC2
34

----------
Molecular target: Toll-like receptor 9 (Mus musculus, UniProt Q9EQU3)
Sequence (Q9EQU3 whole entry): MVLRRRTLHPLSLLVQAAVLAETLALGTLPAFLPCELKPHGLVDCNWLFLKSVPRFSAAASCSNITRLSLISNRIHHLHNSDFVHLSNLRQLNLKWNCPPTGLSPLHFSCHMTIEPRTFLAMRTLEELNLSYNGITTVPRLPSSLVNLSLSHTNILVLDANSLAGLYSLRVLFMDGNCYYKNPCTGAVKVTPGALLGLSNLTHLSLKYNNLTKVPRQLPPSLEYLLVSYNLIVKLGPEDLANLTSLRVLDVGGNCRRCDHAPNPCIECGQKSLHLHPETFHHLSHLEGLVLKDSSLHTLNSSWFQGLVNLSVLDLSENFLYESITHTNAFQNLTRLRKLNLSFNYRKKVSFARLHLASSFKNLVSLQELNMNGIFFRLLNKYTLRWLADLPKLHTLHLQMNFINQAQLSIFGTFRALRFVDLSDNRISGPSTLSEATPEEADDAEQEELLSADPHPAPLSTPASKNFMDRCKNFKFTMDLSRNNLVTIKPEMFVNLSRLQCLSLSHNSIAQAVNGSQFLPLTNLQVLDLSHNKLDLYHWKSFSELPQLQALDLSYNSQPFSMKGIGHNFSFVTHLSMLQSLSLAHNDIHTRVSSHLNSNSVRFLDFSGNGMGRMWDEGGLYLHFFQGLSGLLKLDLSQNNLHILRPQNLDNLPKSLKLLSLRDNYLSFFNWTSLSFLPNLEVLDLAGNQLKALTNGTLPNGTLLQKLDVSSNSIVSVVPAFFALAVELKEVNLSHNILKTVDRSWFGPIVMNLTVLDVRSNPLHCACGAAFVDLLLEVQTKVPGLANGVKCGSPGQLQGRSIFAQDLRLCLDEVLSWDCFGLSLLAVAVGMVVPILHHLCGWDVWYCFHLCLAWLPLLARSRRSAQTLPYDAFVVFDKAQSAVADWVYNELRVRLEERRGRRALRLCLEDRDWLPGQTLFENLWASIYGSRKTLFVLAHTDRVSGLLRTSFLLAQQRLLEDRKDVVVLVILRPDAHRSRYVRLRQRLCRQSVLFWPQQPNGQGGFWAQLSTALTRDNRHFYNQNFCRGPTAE
Assay: Antagonist activity at TLR9 in mouse splenocytes assessed as inhibition of CpG1585-induced IL6 production
Listed next: entries and their corresponding IC50.
Number plus unit, in that order.

Examples from the recorded data:
Given the entry Cn1nc(-c2ccc(OCC3CCNCC3)c(F)c2)c2cnc(N)nc21 , report its measured IC50.
2 µM

Another compound to check: Cn1nc(-c2ccc(OCCCC3CCNCC3)c(F)c2)c2cnc(N)nc21
1.3 µM

Now the same for Cc1cc(-c2ccc(OCC34CCC(N)(CC3)CC4)c(F)c2)c2cnc(N)nn12
0.46 µM

Then what about the compound Cn1nc(-c2ccc(OCC3C[C@H]4CC[C@@H](C3)N4)c(F)c2)c2cnc(N)nc21 (stereo partly drawn) ?
1.2 µM

Here is the next compound: Cn1nc(-c2ccc(OCC3CC4(CNC4)C3)c(F)c2)c2cnc(N)nc21
1.2 µM

Can you check Cn1nc(-c2ccc(OCC34CCC(O)(CC3)CC4)c(F)c2)c2cnc(N)nc21 next?
2.8 µM

Next up: Cn1nc(-c2ccc(OC[C@H]3CC[C@@H](N)CC3)c(F)c2)c2cnc(N)nc21
1.2 µM

Then this compound:
Requested read-out: IC50. Entry: Cc1cc(-c2ccnc3[nH]ncc23)cnc1OCC12CCC(N)(CC1)CC2
1.2 µM

----------
Test: Drug uptake in 129Sv mouse at 30 mg/kg, ip measured after 2 hrs
Type: ADME, organism-based
Conditions: in vivo, read-out: Drug uptake
ASSAY METRIC: concentration at 2 h (nM)
Give the value, in units of nM, as a plain number.

Entry Cn1nc(-c2ccc(OCCCC3CCNCC3)c(F)c2)c2cnc(N)nc21 has what concentration at 2 h?
1500

----------
Test: Cmax in BALB/c mouse at 20 mg/kg, po
Assay type: ADME, organism-based
Set-up: route oral, dose 20 mg/kg
Conditions: in vivo
Cmax listing for selected molecules.
The response must be a number in nM with no trailing unit.

Study these solved cases before continuing.
Item under review: Cc1cc(-c2ccnc3[nH]ncc23)cnc1OCC12CCC(O)(CC1)CC2 . Reported Cmax?
4370

Could you do the same for Cc1cc(-c2cnc(OCC34CCC(N)(CC3)CC4)c(C)c2)c2cnn(C)c2n1 , please?
1400

Thanks! And Cc1cc(-c2nn(C)c3nc(N)ncc23)cnc1OCC12CCC(N)(CC1)CC2 ?
354

Further cases:
So what does the record say about Cmax for Cc1cc(-c2ccnc3[nH]ncc23)cnc1OCC12CCC(N)(CC1)CC2 ?
3230

Please do the same for Cn1nc(-c2ccc(OCC34CCC(N)(CC3)CC4)c(F)c2)c2cnc(N)nc21 as well.
506
